Source: PubChem BioAssay AID1159580

test: chemical genetic growth profiling, strain panel (AID 1159580);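 also: tested at 20 µM; growth read once vehicle control cultures reached saturation at 30 °C; 1 = growth at the plate median or of vehicle wells; lower values mean less growth of the strain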; conditions: S. cerevisiae deletion strains, growth OD, locus YFR003C, strain YPI1, active compounds read low
The campaign covered roughly 5,500 compounds. About 2,000 (36%) were called active. Not shown: some 18% with an inconclusive outcome. Some of the results follow.
value type: normalized growth
Just the number, please.

Worked examples, 4 compounds total:
• CCc1cc2c(cc1-c1csc(C/C(N)=N\O)n1)C(C)(C)CCC2(C)C = 0.974
• COc1cc(C(=O)Oc2c(Cl)cc(Cl)cc2C=Nc2cccc(C(F)(F)F)c2)cc(OC)c1OC = 0.972
• COc1cc(N=Cc2cc(Cl)cc(Cl)c2OS(=O)(=O)c2ccc(C)cc2)c(OC)cc1Cl = 0.952
• Cc1cc(C(=O)O/N=C(/N)c2ccc([N+](=O)[O-])o2)no1 = 0.955

Query :: Consider the compound CCOC(=O)c1c(N=Cc2cc(Br)c(Br)cc2O)sc2c1CCCC2 and give its recorded normalized growth.
Result :: 0.961

Query :: Consider the compound CC(C)(O)C#Cc1ccc(/C=N\Nc2c(Cl)cc(Cl)cc2Cl)cc1 and give its recorded normalized growth.
Result :: 0.978

Query :: Consider the compound CCOC(=O)NC(=S)NC12CC3CC(CC(C3)C1)C2 and give its recorded normalized growth.
Result :: 0.981

Query :: Consider the compound CC(C)(O)C#Cc1ccc(/C=N\Nc2ccccc2)cc1 and give its recorded normalized growth.
Result :: 0.957

Query :: Consider the compound COc1ccccc1NC(=O)Nc1nn(C)c2cccc(OC)c12 and give its recorded normalized growth.
Result :: 0.924

Query :: Consider the compound Cc1nc(C(F)(F)F)c(C(=O)O/N=C(/N)c2ccc(Cl)cc2)s1 and give its recorded normalized growth.
Result :: 0.982

Query :: Consider the compound CCCCCCCC1CCC/C1=N/OC(=O)c1cccs1 (stereo unspecified) and give its recorded normalized growth.
Result :: 1.01

Query :: Consider the compound COc1cc(C(=O)Oc2c(Cl)cc(Cl)cc2C=Nc2ccc([N+](=O)[O-])cc2C#N)cc(OC)c1OC and give its recorded normalized growth.
Result :: 0.975
